Entries and their Kd values follow.
- target_entity: β-catenin (Homo sapiens)
- Sequence (P35222 whole entry): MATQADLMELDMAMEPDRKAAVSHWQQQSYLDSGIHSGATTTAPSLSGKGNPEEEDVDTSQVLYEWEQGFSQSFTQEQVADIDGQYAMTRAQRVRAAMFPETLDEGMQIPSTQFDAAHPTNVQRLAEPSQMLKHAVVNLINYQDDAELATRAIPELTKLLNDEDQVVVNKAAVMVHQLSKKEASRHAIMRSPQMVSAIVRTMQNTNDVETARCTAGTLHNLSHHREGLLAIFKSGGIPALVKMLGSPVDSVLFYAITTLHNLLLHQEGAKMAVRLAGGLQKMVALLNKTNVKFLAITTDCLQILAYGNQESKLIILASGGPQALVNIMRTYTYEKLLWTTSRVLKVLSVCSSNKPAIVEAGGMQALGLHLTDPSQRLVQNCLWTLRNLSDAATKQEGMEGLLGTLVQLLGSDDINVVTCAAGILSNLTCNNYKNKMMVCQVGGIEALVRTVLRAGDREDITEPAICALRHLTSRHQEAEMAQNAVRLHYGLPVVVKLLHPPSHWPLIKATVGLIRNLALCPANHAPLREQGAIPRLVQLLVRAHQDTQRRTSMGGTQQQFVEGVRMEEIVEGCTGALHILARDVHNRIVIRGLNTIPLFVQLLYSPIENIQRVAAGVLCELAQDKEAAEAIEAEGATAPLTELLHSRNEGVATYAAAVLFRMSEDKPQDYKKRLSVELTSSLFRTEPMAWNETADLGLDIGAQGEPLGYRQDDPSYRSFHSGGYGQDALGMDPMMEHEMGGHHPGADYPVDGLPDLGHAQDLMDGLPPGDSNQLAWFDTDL
- procedure_text: KD50 measurement using competitive fluorescence polarization (FP) with labelled TCF4
- Format: binding
- experimental_parameters: fluorescence polarization, β-catenin; read-out: β-Cat FP KD
Where a SMILES comes first, the peptide text is derived from it. [ ]: non-standard residue; d: D form. The star is where a group is joined. ξ: configuration not given here. ξIle = CC[C@H](C)C(N)C(=O)O; Piv = CC(C)(C)C(=O)*

Here is how some compounds turned out for Kd.
CC[C@H](C)C(NC(=O)[C@H](CC(C)C)NC(=O)C(NC(=O)[C@H](Cc1c[nH]c2ccccc12)NC(=O)[C@H](CCSC)NC(=O)C(C)(C)C)[C@@H](C)CC)C(=O)N[C@@H](CO)C(=O)N[C@@H](Cc1ccccc1)C(=O)N[C@@H](Cc1c[nH]c2ccccc12)C(=O)NCC(=O)O (stereo partly drawn) [compound 224] (Piv-MW[ξIle]L[ξIle]SFWG-OH) ... < 400 nM
CC[C@H](C)[C@@H]1NC(=O)[C@H](CC(C)C)NC(=O)[C@H](Cc2ccccc2)NC(=O)[C@H](Cc2c[nH]c3ccccc23)NC(=O)[C@@H](N)CCCCNC(=O)CC[C@@H](C(=O)NCC(=O)O)NC(=O)[C@H](Cc2c[nH]c3ccccc23)NC(=O)[C@H](Cc2ccccc2)NC(=O)[C@H](CS)NC1=O [compound 272] (HELM PEPTIDE1{K.W.F.L.I.C.F.W.E.G}$PEPTIDE1,PEPTIDE1,1:R3-9:R3$$$V2.0) ... 1000 to 10000 nM

Req: I would be grateful if you could share the reported Kd for CC[C@H](C)[C@H](NC(=O)[C@H](CC(C)C)NC(=O)[C@H](Cc1ccccc1)NC(=O)[C@@H](N)Cc1c[nH]c2ccccc12)C(=O)N[C@@H](CO)C(=O)N[C@@H](Cc1ccccc1)C(=O)N[C@@H](Cc1c[nH]c2ccccc12)C(N)=O [compound 98] (H-WFLISFW-NH2) .
Resp: 1000 to 10000 nM

====

- experimental_parameters: % Viability non-Wnt responsive cells
Where a SMILES comes first, the peptide text is derived from it.
quantity_kind: viability (%)
Numbers only here, please. The scale is %.

Here is how some compounds turned out for viability.
CC[C@H](C)[C@H](NC(=O)[C@H](CC(C)C)NC(=O)[C@H](Cc1ccccc1)NC(=O)[C@H](Cc1c[nH]c2ccccc12)NC(=O)[C@H](Cc1c[nH]cn1)NC(=O)[C@H](CCCNC(=N)N)NC(=O)[C@H](CO)NC(=O)[C@@H](N)CCSC)C(=O)N[C@@H](CO)C(=O)N[C@@H](Cc1ccccc1)C(=O)N[C@@H](Cc1c[nH]c2ccccc12)C(N)=O [compound 88] (H-MSRHWFLISFW-NH2) ... 105
CC[C@H](C)[C@@H]1NC(=O)[C@H](CC(C)C)NC(=O)[C@H](Cc2ccc(O)cc2)NC(=O)[C@H](Cc2c[nH]c3ccccc23)NC(=O)[C@H](CCSC)NC(=O)[C@H](CCCNC(=N)N)NC(=O)[C@H](CO)NC(=O)[C@@H](N)CCCCNC(=O)[C@H](Cc2c[nH]c3ccccc23)NC(=O)[C@H](Cc2ccccc2)NC(=O)[C@H](CO)NC1=O [compound 32] (HELM PEPTIDE1{K.S.R.M.W.Y.L.I.S.F.W}$PEPTIDE1,PEPTIDE1,1:R3-11:R2$$$V2.0) ... 93
CC[C@H](C)[C@H](NC(=O)[C@H](CC(C)C)NC(=O)[C@H](Cc1ccccc1)NC(=O)[C@H](Cc1c[nH]c2ccccc12)NC(=O)[C@H](CCCCN)NC(=O)[C@H](CCCNC(=N)N)NC(=O)[C@H](CO)NC(=O)[C@@H](N)Cc1c[nH]c2ccccc12)C(=O)N[C@@H](CO)C(=O)N[C@@H](Cc1ccccc1)C(=O)N[C@@H](Cc1c[nH]c2ccccc12)C(N)=O [compound 90] (H-WSRKWFLISFW-NH2) ... 83.3
CC[C@H](C)[C@H](NC(=O)[C@H](CC(C)C)NC(=O)[C@H](Cc1ccccc1)NC(=O)[C@H](Cc1c[nH]c2ccccc12)NC(=O)[C@@H](N)CCSC)C(=O)N[C@@H](CS)C(=O)N[C@@H](Cc1cncn1C)C(=O)N[C@@H](Cc1c[nH]c2ccccc12)C(=O)NCC(=O)O [compound 135] (HELM PEPTIDE1{M.W.F.L.I.C.[Cn1cncc1C[C@H](N[*:1])C(=O)[*:2]].W.G}$$$$V2.0) ... 107
CC[C@H](C)[C@H](NC(=O)[C@H](CC(C)C)NC(=O)[C@H](Cc1ccccc1)NC(=O)[C@@H](N)Cc1c[nH]c2ccccc12)C(=O)N[C@@H](CO)C(=O)N[C@@H](Cc1ccccc1)C(=O)N[C@@H](Cc1c[nH]c2ccccc12)C(N)=O [compound 98] (H-WFLISFW-NH2) ... 96

# context switch: different compound, same viability
Req: I would be grateful if you could share the reported viability for CC[C@H](C)[C@@H]1NC(=O)[C@H](CC(C)C)NC(=O)[C@H](Cc2ccccc2)NC(=O)[C@H](Cc2c[nH]c3ccccc23)NC(=O)[C@@H](NC(C)=O)CCCCNC(=O)CC[C@@H](C(=O)O)NC(=O)[C@H](Cc2c[nH]c3ccccc23)NC(=O)[C@H](C)NC(=O)[C@H](CO)NC1=O [compound 187] (HELM PEPTIDE1{[ac].K.W.F.L.I.S.A.W.E}$PEPTIDE1,PEPTIDE1,2:R3-10:R3$$$V2.0) .
Resp: 90.3

====

- target_entity: Wnt-responsive promoter (TCF/LEF)
- procedure_text: Wnt-dependent luciferase reporter assay
Where a SMILES comes first, the peptide text is derived from it.
quantity_kind: EC50

Here is how some compounds turned out for EC50.
CC[C@H](C)[C@H](NC(=O)[C@H](CC(C)C)NC(=O)[C@H](Cc1ccccc1)NC(=O)[C@H](Cc1c[nH]c2ccccc12)NC(=O)[C@H](CCCCN)NC(=O)[C@H](CCCNC(=N)N)NC(=O)[C@H](CO)NC(=O)[C@@H](N)CCSC)C(=O)N[C@@H](CO)C(=O)N[C@@H](Cc1ccccc1)C(=O)N[C@@H](Cc1c[nH]c2ccccc12)C(=O)NCC(=O)O [compound 59] (H-MSRKWFLISFWG-OH) ... > 30 µM
CC[C@H](C)[C@H](NC(=O)[C@H](CC(C)C)NC(=O)[C@H](CC(C)C)NC(=O)[C@H](Cc1c[nH]c2ccccc12)NC(=O)[C@H](CCSC)NC(=O)[C@H](CCCNC(=N)N)NC(=O)[C@H](CO)NC(=O)[C@@H](N)CCSC)C(=O)N[C@@H](CO)C(=O)N[C@@H](Cc1ccccc1)C(=O)N[C@@H](Cc1c[nH]c2ccccc12)C(=O)NCC(=O)O [compound 60] (H-MSRMWLLISFWG-OH) ... 7.5 to 15 µM
CC[C@H](C)[C@@H]1NC(=O)[C@H](CC(C)C)NC(=O)[C@H](Cc2ccccc2)NC(=O)[C@H](Cc2c[nH]c3ccccc23)NC(=O)[C@@H](NC(C)=O)CCCCNC(=O)CC[C@@H](C(=O)O)NC(=O)[C@H](Cc2c[nH]c3ccccc23)NC(=O)[C@H](Cc2ccccc2)NC(=O)[C@H](CO)NC1=O [compound 199] (HELM PEPTIDE1{[ac].K.W.F.L.I.S.F.W.E}$PEPTIDE1,PEPTIDE1,2:R3-10:R3$$$V2.0) ... < 7.5 µM

# context switch: different compound, same EC50
Req: I would be grateful if you could share the reported EC50 for CC[C@H](C)[C@@H]1NC(=O)[C@H](CC(C)C)NC(=O)[C@H](Cc2ccccc2)NC(=O)[C@H](Cc2c[nH]c3ccccc23)NC(=O)[C@@H](NC(C)=O)CCCCNC(=O)C[C@@H](C(=O)O)NC(=O)[C@H](Cc2c[nH]c3ccccc23)NC(=O)[C@H](C)NC(=O)[C@H](CS)NC1=O [compound 169] (HELM PEPTIDE1{[ac].K.W.F.L.I.C.A.W.D}$PEPTIDE1,PEPTIDE1,2:R3-10:R3$$$V2.0) .
Resp: < 7.5 µM

====

- target_entity: Wnt-responsive promoter (TCF/LEF)
- procedure_text: Wnt-dependent luciferase reporter assay
pEC50: −log10 of the molar value. Where a SMILES comes first, the peptide text is derived from it.
Entries and their pEC50 values follow.

Here is how some compounds turned out for pEC50.
CC[C@H](C)[C@H](NC(=O)[C@H](CC(C)C)NC(=O)[C@H](Cc1ccccc1)NC(=O)[C@H](Cc1c[nH]c2ccccc12)NC(=O)[C@@H](N)CCSC)C(=O)N[C@@H](CO)C(=O)N[C@@H](Cc1ccccc1)C(=O)N[C@@H](C)C(=O)NCC(=O)O [compound 161] (H-MWFLISFAG-OH) ... 4.65 to 4.82
CC[C@H](C)[C@@H]1NC(=O)[C@H](CC(C)C)NC(=O)[C@H](Cc2ccccc2)NC(=O)[C@H](Cc2c[nH]c3ccccc23)NC(=O)[C@H](CCSC)NC(=O)[C@@H](N)CCCCNC(=O)C[C@@H](C(=O)O)NC(=O)[C@H](Cc2c[nH]c3ccccc23)NC(=O)[C@H](C)NC(=O)[C@H](CS)NC1=O [compound 167] (HELM PEPTIDE1{K.M.W.F.L.I.C.A.W.D}$PEPTIDE1,PEPTIDE1,1:R3-10:R3$$$V2.0) ... 4.82 to 5.12
CC[C@H](C)[C@H](NC(=O)[C@H](CC(C)C)NC(=O)[C@H](Cc1ccccc1)NC(=O)[C@H](Cc1c[nH]c2ccccc12)NC(=O)[C@H](CCSC)NC(=O)[C@H](CCCNC(=N)N)NC(=O)[C@H](CO)NC(=O)[C@@H](N)CCSC)C(=O)N[C@@H](CO)C(=O)N[C@@H](CC(C)C)C(=O)N[C@@H](Cc1c[nH]c2ccccc12)C(=O)NCC(=O)O [compound 68] (H-MSRMWFLISLWG-OH) ... 4.82 to 5.12
CC[C@H](C)[C@H](NC(=O)[C@H](CC(C)C)NC(=O)[C@@H](NC(=O)[C@H](Cc1c[nH]c2ccccc12)NC(=O)[C@@H](N)CCSC)[C@@H](C)CC)C(=O)N[C@@H](CS)C(=O)N[C@@H](Cc1ccccc1)C(=O)N[C@@H](Cc1c[nH]c2ccccc12)C(=O)NCC(=O)O [compound 116] (H-MWILICFWG-OH) ... > 5.12

Req: I would be grateful if you could share the reported pEC50 for CC[C@H](C)[C@H](NC(=O)[C@H](CC(C)C)NC(=O)[C@@H](NC(=O)[C@H](Cc1c[nH]c2ccccc12)NC(=O)[C@H](CCSC)NC(=O)[C@@H](N)CCCCN)[C@@H](C)CC)C(=O)N[C@@H](CO)C(=O)N[C@@H](Cc1ccccc1)C(=O)N[C@@H](Cc1c[nH]c2ccccc12)C(=O)NCC(=O)O [compound 122] (H-KMWILISFWG-OH) .
Resp: 4.52 to 4.65

Req: Also CC[C@H](C)[C@H](NC(=O)[C@H](CC(C)C)NC(=O)[C@@H](NC(=O)[C@H](Cc1c[nH]c2ccccc12)NC(=O)[C@@H](N)CCCCN)[C@@H](C)CC)C(=O)N[C@@H](CS)C(=O)N[C@@H](Cc1ccccc1)C(=O)N[C@@H](Cc1c[nH]c2ccccc12)C(=O)NCC(=O)O [compound 117] (H-KWILICFWG-OH) ?
Resp: 4.65 to 4.82
